Hello, the source for this data is ChEMBL document CHEMBL3526045, in case you need it.

# tgt: Cocaine esterase (Homo sapiens, UniProt O00748)
# Sequence (O00748 whole entry): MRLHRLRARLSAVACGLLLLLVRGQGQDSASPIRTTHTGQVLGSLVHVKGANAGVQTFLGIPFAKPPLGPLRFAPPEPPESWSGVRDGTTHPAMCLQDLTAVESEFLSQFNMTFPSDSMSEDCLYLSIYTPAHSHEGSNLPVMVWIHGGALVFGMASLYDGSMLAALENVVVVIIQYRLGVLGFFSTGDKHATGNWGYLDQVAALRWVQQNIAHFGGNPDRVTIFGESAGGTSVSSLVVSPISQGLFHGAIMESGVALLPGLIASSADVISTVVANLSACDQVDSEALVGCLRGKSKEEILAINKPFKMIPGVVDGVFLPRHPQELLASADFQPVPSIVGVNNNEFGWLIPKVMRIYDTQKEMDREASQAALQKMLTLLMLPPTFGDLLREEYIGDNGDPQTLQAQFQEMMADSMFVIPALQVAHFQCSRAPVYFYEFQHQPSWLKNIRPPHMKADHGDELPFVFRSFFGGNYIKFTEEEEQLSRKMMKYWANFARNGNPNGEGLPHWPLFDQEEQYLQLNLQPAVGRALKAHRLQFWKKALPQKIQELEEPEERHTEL
# measurementNotes: Activity of human recombinant CES2 expressed in baculovirus-infected High Five insect cells assessed as intrinsic clearance for enzyme-mediated 2-cyclohexyl-2-phenylglycolic acid formation per mg of protein by Michaelis-Menten equation
# Type: ADME
reportedProperty: clearance (µL/min/mg)
Give your result in µL/min/mg as a bare value.

Task: Can you share its clearance? I mean this molecule: CCN(CC)CC#CCOC(=O)C(O)(c1ccccc1)C1CCCCC1.Cl (stereo unspecified) [OXYBUTYNIN CHLORIDE]
Output: 0.51

====

# Test system: Liver cytosol
# measurementNotes: Intrinsic clearance in human liver cytosol assessed as 2-cyclohexyl-2-phenylglycolic acid formation per mg of protein by Michaelis-Menten equation
# Type: ADME, tissue-based
reportedProperty: CLint (µL/min/mg)
I only need the number, in µL/min/mg, no unit after it.

Task: Recorded CLint for CCN(CC)CC#CCOC(=O)C(O)(c1ccccc1)C1CCCCC1.Cl (stereo unspecified) [OXYBUTYNIN CHLORIDE] , please?
Output: 8.2

====

# measurementNotes: Activity of human recombinant CES1b/CES1A1 expressed in baculovirus-infected High Five insect cells assessed as intrinsic clearance for enzyme-mediated 2-cyclohexyl-2-phenylglycolic acid formation per mg of protein by Michaelis-Menten equation
# Assay type: ADME
reportedProperty: clearance (µL/min/mg)
Field: numeric (µL/min/mg). Do not append units.

Task: If you can, please state the reported clearance value of CCN(CC)CC#CCOC(=O)C(O)(c1ccccc1)C1CCCCC1.Cl (stereo unspecified) [OXYBUTYNIN CHLORIDE] .
Output: 18

====

# measurementNotes: Activity of human recombinant CES1b/CES1A1 expressed in baculovirus-infected High Five insect cells assessed as enzyme-mediated 2-cyclohexyl-2-phenylglycolic acid formation by Michaelis-Menten equation
# Format: ADME
reportedProperty: Km (µM)
Output spec: scalar in µM, unitless text.

Task: Returns the measured Km for the input molecule. Input: CCN(CC)CC#CCOC(=O)C(O)(c1ccccc1)C1CCCCC1.Cl (stereo unspecified) [OXYBUTYNIN CHLORIDE]
Output: 17
